test.details: Acute toxicity, single intravenous injection, LD50 (Bliss method) in Kunming mice
Assay type: in vivo
measurement.conditions: both sexes, Kunming, mouse, in vivo, iv, Kunming mice, 50% male 50% female, Bliss method; read-out: mouse single i.v. dose LD50 value
Catalogue of LD50 at 2 weeks readings, one per entry.
Your answer should be a plain number; it is taken to be in mg/kg.

compound | experimental.value
c1ccc(CSSSCc2ccccc2)cc1 [DBTS, Dibenzyl trisulfide] | 259

We next turn to a different compound, shown below.
Query block: Name the reported LD50 at 2 weeks value associated with the compound Fc1ccc(CSSSCc2ccc(F)cc2)cc1 [ACEA100108, Di(p-fluorobenzyl)trisulfide]
Result block: 316

The reported measurements were obtained from patent US8334316B2.
